Let's look at some compounds and their measured OD level (number of viable Leishmania protozoa).
# System: Leishmania (L. major)
# procedureSummary: Leishmania protozoa proliferation inhibition assay
# Type: cell-based
# setupConditions: Table 2; sample concentration 0.025 mg/ml; 48 hours at 27° C.; absorbance 450 nm minus 630 nm
# answer = number (no unit)

Exercise: Report OD level (number of viable Leishmania protozoa) for CCn1c(=Cc2sc3ccc4ccccc4c3[n+]2C)sc(=C2Sc3ccccc3N2C)c1=O.Cc1ccc(S(=O)(=O)[O-])cc1 [IV (g)] please.
Solution: 0.055

----------
Let's look at some molecules and their measured OD level (number of viable Leishmania protozoa).
# Tested on: Leishmania (L. major)
# procedureSummary: Leishmania protozoa proliferation inhibition assay
# Assay type: cell-based
# setupConditions: Table 1; sample concentration 10 mg/ml; 48 hours at 27° C.; absorbance 450 nm minus 630 nm
# answer = number (no unit)

Here are 5 molecules together with their reported answers.
• CCN1C(=O)CS/C1=C\c1sc2ccccc2[n+]1CC [V (b)] = 0.042
• CCn1c(=Cc2sc3ccccc3[n+]2CC)sc(=c2sc(=C3Sc4ccccc4N3C)c(=O)n2CC)c1=O.[Br-] [IV (e)] = 0.032
• CCn1c(=Cc2ccc3ccccc3[n+]2C)sc(=C2Sc3ccccc3N2C)c1=O.[I-] [IV (c)] = 0.032
• C=CCn1c(=Cc2cccc[n+]2C)sc(=C2Sc3ccccc3N2C)c1=O.Cc1ccc(S(=O)(=O)[O-])cc1 [IV (a)] = 0.031
• CN1/C(=C\c2cccc[n+]2C)Sc2ccccc21 [V (a)] = 0.031

Exercise: Report OD level (number of viable Leishmania protozoa) for CCn1c(=Cc2cc[n+](C)cc2)sc(=C2Sc3ccccc3N2C)c1=O.Cc1ccc(S(=O)(=O)[O-])cc1 [IV (j)] please.
Solution: 0.188

Exercise: Field entry: CCn1c(=Cc2cccc[n+]2CC)sc(=C2Sc3ccccc3N2C)c1=O.[Cl-] [IV (i)]
Solution: 0.030

----------
# System: Leishmania (L. major)
# procedureSummary: Leishmania protozoa proliferation inhibition assay
# Assay type: cell-based
# setupConditions: Table 3; sample concentration 0.02406 mg/ml; 48 hours at 27° C.; absorbance 450 nm minus 630 nm
Let's look at some compounds and their measured OD level (number of viable Leishmania protozoa).

Here are 2 compounds together with their reported answers.
- CCn1c(=Cc2sc3ccccc3[n+]2C)sc(=C2C=Cc3ccccc3N2C)c1=O.Cc1ccc(S(=O)(=O)[O-])cc1 [IV (d)]: 0.341
- C[C@@H]1[C@H](O)[C@@H](C)/C=C/C=C/C=C/C=C/C=C/C=C/C=C/[C@H](O[C@@H]2O[C@H](C)[C@@H](O)[C@H](N)[C@@H]2O)C[C@@H]2O[C@](O)(C[C@@H](O)C[C@@H](O)[C@H](O)CC[C@@H](O)C[C@@H](O)CC(=O)O[C@H]1C)C[C@H](O)[C@H]2C(=O)O [Amphotericin B, reference compound]: 0.331

Exercise: Report OD level (number of viable Leishmania protozoa) for CN1C(=c2sc(=Cc3sc4ccccc4[n+]3C)n(CC3CCCO3)c2=O)Sc2ccccc21.Cc1ccc(S(=O)(=O)[O-])cc1 (stereo not shown) [IV (k)] please.
Solution: 0.341

Exercise: Field entry: C=CCn1c(=Cc2cccc[n+]2C)sc(=C2Sc3ccc(Cl)cc3N2C)c1=O.Cc1ccc(S(=O)(=O)[O-])cc1 [IV (h)]
Solution: 0.423

Exercise: Field entry: CCn1c(=Cc2cccc[n+]2C)sc(=C2Sc3ccc(Cl)cc3N2C)c1=O.Cc1ccc(S(=O)(=O)[O-])cc1 [IV (f)]
Solution: 0.384

Exercise: Field entry: CN1C(=c2sc(=Cc3cccc[n+]3C)n(CC3CCCO3)c2=O)Sc2ccc3ccccc3c21.Cc1ccc(S(=O)(=O)[O-])cc1 (stereo not shown) [IV (l)]
Solution: 0.357

Exercise: Field entry: CCn1c(=Cc2sc3ccccc3[n+]2C)sc(=C2Sc3ccc4ccccc4c3N2C)c1=O.Cc1ccc(S(=O)(=O)[O-])cc1 [IV (m)]
Solution: 0.354
